Test system: OVCAR-4 ovarian
Experiment: NCI tumour cell line growth inhibition, 48 h
Outcome Measure: GI50

Solved cases (2 shown):
C=C1C(=O)O[C@H]2[C@H]1CC/C(COC(=O)CCSSCCC(=O)OC/C1=C/CC[C@@]3(C)O[C@H]3[C@H]3OC(=O)C(=C)[C@@H]3CC1)=C\CC[C@@]1(C)O[C@@H]21    1520 nM
CC(=O)OC1CC2C(C)(C)C(=O)C=C[C@]2(C)C2CC[C@]3(C)C(OCC(=O)[C@H]3c3ccoc3)[C@]12C (some centres not stated)    4200 nM

Provide the reported GI50 of each entry below, same order.
1. COC(=O)C1=CN(CC2=CC(=O)C(C)=CC2=O)C=C(C(=O)OC)C1c1cc(OC)ccc1OC
2. OCc1ccc(N(Cc2ccc(F)cc2)CC2CC2)cc1Cl
3. CCCN(CCC)c1ccc(CO)c(Cl)c1
4. Nn1c2c(c3ccccc3c1=O)C(=O)c1ccccc1-2
5. C[C@]12CCC(=O)CC1CC[C@@H]1C2CC[C@@]2(C)C1CC[C@@H]2OC(=O)CC[Se][Se]CCC(=O)O[C@H]1CCC2[C@@H]3CCC4CC(=O)CC[C@]4(C)C3CC[C@@]21C (some centres not stated)

["12500 nM", "511 nM", "1210 nM", "> 50000 nM", "3510 nM"]

Could I get GI50 for every one of these entries?
1. Cc1cc(Oc2ccccc2)ccc1Nc1ncnc2ccc(-c3cnc(Cl)c(NS(C)(=O)=O)c3)cc12
2. Cc1cc(N(CCNc2ccnc3cc(Cl)ccc23)Cc2cccs2)nc(Cl)n1
3. COc1ccc2c(c1)[n+]([O-])c(C#N)c(NC(=O)c1cccs1)[n+]2[O-]
4. COc1cc(-c2csc(NC(=O)Nc3ccc(Cl)c(C(F)(F)F)c3)n2)cc(OC)c1OC

2150 nM
1390 nM
> 100000 nM
1150 nM

For every item in the list below, what is its measured GI50?
1. O=C(N/N=C(\CN1CCN(c2cc3[nH]cc(C(=O)O)c(=O)c3cc2F)CC1)c1ccc(Cl)cc1)c1ccncc1
2. Cc1nc2c(o1)C(=O)c1ccccc1C2=Nc1ccccc1
3. C=CC(=O)N1C[C@H](COc2nc(Nc3cnn(C)c3)nc3[nH]cc(Cl)c23)[C@@H](OC)C1
4. [Cl-].[Nd+3].[O-]/N=C(\c1ccccc1)c1ccccn1.[O-]/N=C(\c1ccccc1)c1ccccn1.[O-]/N=C(\c1ccccc1)c1ccccn1
5. CN(C)CCCNCc1ccc(-c2ccc(F)c(Cl)c2)o1
6. COc1cc2c(cc1OCc1ccccc1)N=CC1C[C@@H](O)CN1C2=O (some centres not stated)

1. 39800 nM
2. 2150 nM
3. 2150 nM
4. 45100 nM
5. 13000 nM
6. 12400 nM
